Where do these numbers come from? They come from the FLAb antibody collection (doi:10.7554/elife.23156).

B1: scFv; the commonest letter at each place (parent)
chain 1: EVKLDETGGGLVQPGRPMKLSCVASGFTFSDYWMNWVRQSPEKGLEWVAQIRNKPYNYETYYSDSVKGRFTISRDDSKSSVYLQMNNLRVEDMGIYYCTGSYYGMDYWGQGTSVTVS
chain 2: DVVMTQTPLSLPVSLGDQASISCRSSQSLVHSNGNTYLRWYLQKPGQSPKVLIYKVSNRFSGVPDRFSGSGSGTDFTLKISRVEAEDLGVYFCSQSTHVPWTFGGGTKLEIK

Variants of: B1
Method: yeast surface expression (ratio to wild type); higher = more expressed
Conditions Used: format: scFv 4-4-20, heavy + light
Assign classes using reported yeast surface expression values and the ranges band A: < 0.6; band B: ≥ 0.6 and < 0.9; band C: ≥ 0.9, please.

In [3]: df
Out[3]:
           mutation_key  category_label
 0    chain 1 T28A D31L          band B
 1    chain 1 M34E N35H          band A
 2  chain 1 G104D G109V          band A
 3         chain 1 D31P          band B
 4  chain 1 S101N Y103N          band C
 5    chain 1 W36F V37Y          band B
 6         chain 1 Y32R          band C
 7  chain 1 G100E Y102G          band A
 8  chain 1 Y103D Y107R          band C
 9         chain 1 S30T          band C
10         chain 1 D31Y          band B
